Just for reference, patent US20130266566A1 is where these values come from.

- measurementTarget: active human PAI-1, recombinant, wild-type, non-glycosylated (E. coli) (human, UniProt P05121 24-402)
- Sequence (P05121 24-402): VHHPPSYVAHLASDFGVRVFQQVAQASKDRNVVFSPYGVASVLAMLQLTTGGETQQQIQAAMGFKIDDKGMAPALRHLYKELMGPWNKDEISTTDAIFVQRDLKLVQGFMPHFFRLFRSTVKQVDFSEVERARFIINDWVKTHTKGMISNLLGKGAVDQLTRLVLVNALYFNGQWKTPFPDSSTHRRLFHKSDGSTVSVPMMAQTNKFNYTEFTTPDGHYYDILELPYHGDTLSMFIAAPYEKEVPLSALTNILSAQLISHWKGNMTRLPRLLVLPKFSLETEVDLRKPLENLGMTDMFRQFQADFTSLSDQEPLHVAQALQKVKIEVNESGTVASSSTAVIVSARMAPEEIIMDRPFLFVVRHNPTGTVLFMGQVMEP
- assaySummary: cell-based or functional assay
endpoint: Chromogenic (IC50 in nM) human
Report the value in nM with no unit label.

binder	Chromogenic (IC50 in nM) human
Antibody 01 scFv (scFv) QVQLVQSGAEVKKPGSSVKVSCKASGGTFSSYAISWVRQAPGQGLEWMGGIIPIFGTANYAQKFQGRVTITADESTSTAYMELSSLRSEDTAVYYCAREKRQWLEGHFDYWGRGTLVTVSSDIQMTQSPSTLSASVGDRVTITCRASEGIYRSLAWYQQKPGKAPKLLIYKASSLASGVPSRFSGSGSGTEFTLTISSLQPDDFATYYCQQYSNYPLTFGGGTKVEIK	3.4

Query: Need Chromogenic (IC50 in nM) human, item Antibody 11 scFv (scFv) QVQLQQSGAEVKKPGSSVKVSCKASGGTFSSYAISWMRQAPGQGLEWMGGIIPIFGTANYAQKFQGRVTITADESTSTAYMELSGLRSEDTAVYYCAREKRQWLEGHFDYWGRGTPVTVSSDIQMIQSPSFLSASTGDRVTITCQASEGIYHELAWYQQKPGKAPKLLIYRASSLASGAPSRFSGSGSGTDFTLTISSLQPDDFATYYCQQYSNYPLTFGGGTKLEIK
Result: 102
